# System: 885724-159-R-J1-PDC complex spheroid viability;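 note: spheroids exposed to agents for seven days before readout; percent of vehicle control viability where 100% = DMSO wells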
# Test: Anticancer human tumor 885724-159-R-J1-PDC patient-derived pancreatic adenocarcinoma cell line growth inhibition [GQUAD]
# Condition details: second compound 0.1 µM; first compound 3.16 µM; active compounds read low
Readout name: viability, T/C (%)
Give bare numbers, in %.

Worked cases, answers included:
{"Molecule": "CC1COCCN1c1cc(-c2ccnn2C)c2ccnc(-c3ccn[nH]3)c2n1 (stereo not given) + CN(C)c1ccc(Nc2c3ccc(NC(=O)CCN4CCCC4)cc3nc3cc(NC(=O)CCN4CCCC4)ccc23)cc1", "Readout name": "viability, T/C", "Recorded value": 48.1}
{"Molecule": "C=CC(=O)N1CCN(c2nc(=O)n(-c3c(C)ccnc3C(C)C)c3nc(-c4c(O)cccc4F)c(F)cc23)C(C)C1 (stereo not given) + Cc1[nH]c2ccc(F)cc2c1-c1nc2c3cccnc3c3ncccc3c2[nH]1", "Readout name": "viability, T/C", "Recorded value": 109}
{"Molecule": "C#Cc1c(F)ccc2cc(O)cc(-c3ncc4c(N5CC6CCC(C5)N6)nc(OCC56CCCN5CC(F)C6)nc4c3F)c12 (stereo not given) + Cc1cnc(CNC(=O)c2c(=O)c3ccc(N4CCCN(C)CC4)nc3n3c2sc2ccccc23)cn1", "Readout name": "viability, T/C", "Recorded value": 71.4}
{"Molecule": "CCCS(=O)(=O)Nc1ccc(F)c(C(=O)c2c[nH]c3ncc(-c4ccc(Cl)cc4)cc23)c1F + CN(C)c1ccc(Nc2c3ccc(NC(=O)CCN4CCCC4)cc3nc3cc(NC(=O)CCN4CCCC4)ccc23)cc1", "Readout name": "viability, T/C", "Recorded value": 133}

Answer for every listed entry: what is its viability, T/C? The entries follow.
1. O=C(NO)c1cnc(N2CCN(S(=O)(=O)c3ccc4ccccc4c3)CC2)nc1 + Cc1cnc(CNC(=O)c2c(=O)c3ccc(N4CCCN(C)CC4)nc3n3c2sc2ccccc23)cn1
2. C=CCn1c(=O)c2cnc(Nc3ccc(N4CCN(C)CC4)cc3)nc2n1-c1cccc(C(C)(C)O)n1 + Cc1cnc(CNC(=O)c2c(=O)c3ccc(N4CCCN(C)CC4)nc3n3c2sc2ccccc23)cn1
3. COc1cc(C2c3cc4c(cc3C(OC3OC5COC(C)OC5C(O)C3O)C3COC(=O)C23)OCO4)cc(OC)c1O (stereo not given) + Cc1cnc(CNC(=O)c2c(=O)c3ccc(N4CCCN(C)CC4)nc3n3c2sc2ccccc23)cn1
4. COc1ncnc(C2CC2)c1-c1ncc2cnn(Cc3ccc(-c4nc(C(F)(F)F)cn4C(C)C)cc3)c2n1 + CN(C)c1ccc(Nc2c3ccc(NC(=O)CCN4CCCC4)cc3nc3cc(NC(=O)CCN4CCCC4)ccc23)cc1
5. O=C(NO)c1cnc(N2CCN(S(=O)(=O)c3ccc4ccccc4c3)CC2)nc1 + Cc1[nH]c2ccc(F)cc2c1-c1nc2c3cccnc3c3ncccc3c2[nH]1
6. CC1COCCN1c1cc(-c2ccnn2C)c2ccnc(-c3ccn[nH]3)c2n1 (stereo not given) + Cc1cnc(CNC(=O)c2c(=O)c3ccc(N4CCCN(C)CC4)nc3n3c2sc2ccccc23)cn1

Reply text:
[10.4, 85.9, 95.2, 95, 2.38, 54]
